B1: library; numbered along this chain (parent)
chain: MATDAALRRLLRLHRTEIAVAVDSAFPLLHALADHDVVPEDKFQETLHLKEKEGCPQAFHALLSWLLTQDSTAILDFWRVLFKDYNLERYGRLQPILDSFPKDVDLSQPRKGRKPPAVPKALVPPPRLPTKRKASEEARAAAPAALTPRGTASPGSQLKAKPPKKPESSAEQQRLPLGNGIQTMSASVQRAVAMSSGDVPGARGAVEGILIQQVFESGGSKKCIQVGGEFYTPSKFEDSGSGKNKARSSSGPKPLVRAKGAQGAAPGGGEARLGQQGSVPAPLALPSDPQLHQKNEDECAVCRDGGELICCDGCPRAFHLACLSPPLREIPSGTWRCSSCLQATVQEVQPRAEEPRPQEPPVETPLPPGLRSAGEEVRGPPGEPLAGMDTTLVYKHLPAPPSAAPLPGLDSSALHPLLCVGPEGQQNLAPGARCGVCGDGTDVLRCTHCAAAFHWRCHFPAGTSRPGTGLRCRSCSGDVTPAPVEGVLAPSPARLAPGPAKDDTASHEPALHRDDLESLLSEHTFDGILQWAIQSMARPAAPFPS

# Variants of: B1
# procedure details: AIRE transcriptional activation functional score (insulin promoter-GFP; nonsense median 0, synonymous median 1) (normalised score); higher = higher AIRE activity (more reporter activation)
# measurement context: with insulin promoter-GFP reporter in HEK293
Assign Yes to entries whose AIRE transcriptional activation functional score meets or exceeds 1; assign No to the rest.

Qu. Identify whether the reported AIRE transcriptional activation functional score of the following variant is 1 or greater: "P367E"
Ans. Yes

Qu. Identify whether the reported AIRE transcriptional activation functional score of the following variant is 1 or greater: "H319Q"
Ans. Yes

Qu. Identify whether the reported AIRE transcriptional activation functional score of the following variant is 1 or greater: "K120H"
Ans. No

Qu. Identify whether the reported AIRE transcriptional activation functional score of the following variant is 1 or greater: "G387C"
Ans. No

Qu. Identify whether the reported AIRE transcriptional activation functional score of the following variant is 1 or greater: "A205Q"
Ans. No

Qu. Identify whether the reported AIRE transcriptional activation functional score of the following variant is 1 or greater: "G274T"
Ans. No
